Ret values by entry
Organism: Rattus norvegicus
Experiment: Open TG-GATES - Regimen: Daily Repeat
Format: toxicity, organism-based, Sprague-Dawley
Parameters: regimen Daily Repeat, gender Male, age 6 weeks
Settings: in vivo, po, 10 mg/kg, […], tissue Blood, route gavage, dose level Low, time 14 day
REPORTED ENDPOINT: Ret

| MOLECULE | ENDPOINT RESULT |
| --- | --- |
| CN(C)CCCN1c2ccccc2CCc2ccccc21 [IMIPRAMINE] | 4.1% |
| CC(C)OC(=O)C(C)(C)Oc1ccc(C(=O)c2ccc(Cl)cc2)cc1 [FENOFIBRATE] | 4.5% |
| CC1=C(/C=C/C(C)=C/C=C/C(C)=C/CO)C(C)(C)CCC1 [RETINOL] | 3.9% |
| CN(C)CCN(Cc1cccs1)c1ccccn1 | 4.6% |

###

Species on record: Rattus norvegicus
Test: Open TG-GATES - Regimen: Daily Repeat
Type: toxicity, organism-based, Sprague-Dawley
Design: regimen Daily Repeat, gender Male, age 6 weeks
Details: in vivo, po, 100 mg/kg, […], tissue Blood, route gavage, dose level Low, time 7 day
REPORTED ENDPOINT: Eos (%)

| MOLECULE | UNIT NAME | ENDPOINT RESULT |
| --- | --- | --- |
| CCOc1ccc(NC(=O)CC(C)O)cc1 (stereo not given) [BUCETIN] | % | 0.8 |
| NC(N)=Nc1nc(CSCCC(N)=NS(N)(=O)=O)cs1 [FAMOTIDINE] | % | 1 |
| COc1ccc2[nH]c([S+]([O-])Cc3ncc(C)c(OC)c3C)nc2c1 (stereo not given) [OMEPRAZOLE] | % | 1 |
| CCOC(=O)CCC(=O)O[C@H]1[C@H](O[C@@H]2[C@@H](C)[C@H](O[C@H]3C[C@@](C)(OC)[C@@H](O)[C@H](C)O3)[C@@H](C)C(=O)O[C@H](CC)[C@@](C)(O)[C@H](O)[C@@H](C)C(=O)[C@H](C)C[C@@]2(C)O)O[C@H](C)C[C@@H]1N(C)C [ERYTHROMYCIN ETHYLSUCCINATE] | % | 0.8 |
| COC1=CC(=O)C[C@@H](C)[C@]12Oc1c(Cl)c(OC)cc(OC)c1C2=O [GRISEOFULVIN] | % | 1 |

###

K values by entry
Organism: Rattus norvegicus
Assay: Open TG-GATES - Regimen: Daily Repeat
Type: toxicity, organism-based, Sprague-Dawley
Design: regimen Daily Repeat, gender Male, age 6 weeks
Conditions: in vivo, po, 100 mg/kg, […], tissue Plasma, route gavage, dose level Low, time 28 day

| COMPOUND | K, meq/L |
| --- | --- |
| COc1ccc2[nH]c([S+]([O-])Cc3ncc(C)c(OC)c3C)nc2c1 (centres undefined) [OMEPRAZOLE] | 3.6 |
| COC1=CC(=O)C[C@@H](C)[C@]12Oc1c(Cl)c(OC)cc(OC)c1C2=O [GRISEOFULVIN] | 3.5 |
| CCOc1ccc(NC(=O)CC(C)O)cc1 (centres undefined) [BUCETIN] | 3.9 |
| CCOC(=O)CCC(=O)O[C@H]1[C@H](O[C@@H]2[C@@H](C)[C@H](O[C@H]3C[C@@](C)(OC)[C@@H](O)[C@H](C)O3)[C@@H](C)C(=O)O[C@H](CC)[C@@](C)(O)[C@H](O)[C@@H](C)C(=O)[C@H](C)C[C@@]2(C)O)O[C@H](C)C[C@@H]1N(C)C [ERYTHROMYCIN ETHYLSUCCINATE] | 4.1 |

###

Species: Rattus norvegicus
Test: Open TG-GATES - Regimen: Daily Repeat
Assay type: toxicity, organism-based, Sprague-Dawley
Parameters: regimen Daily Repeat, gender Male, age 6 weeks
Conditions: in vivo, po, 10 mg/kg, […], tissue Blood, route gavage, dose level Low, time 7 day
RBC values by entry

| COMPOUND | RBC / x10_4/ul |
| --- | --- |
| CC1=C(/C=C/C(C)=C/C=C/C(C)=C/CO)C(C)(C)CCC1 | 644 |
| CC(C)OC(=O)C(C)(C)Oc1ccc(C(=O)c2ccc(Cl)cc2)cc1 [FENOFIBRATE] | 646.8 |
| CN(C)CCN(Cc1cccs1)c1ccccn1 | 658 |
| CN(C)CCCN1c2ccccc2CCc2ccccc21 | 644.6 |

###

Species: Rattus norvegicus
Test: Open TG-GATES - Regimen: Daily Repeat
Type: toxicity, organism-based, Sprague-Dawley
Design: regimen Daily Repeat, gender Male, age 6 weeks
Settings: in vivo, po, 0 mg/kg, 72 h, tissue Plasma, route gavage, dose level Control, time 3 day
AST values by entry

| COMPOUND | AST, IU/L |
| --- | --- |
| NC(N)=Nc1nc(CSCCC(N)=NS(N)(=O)=O)cs1 | 64.2 |
| CC1=C(/C=C/C(C)=C/C=C/C(C)=C/CO)C(C)(C)CCC1 | 76.2 |
| CCCNC(=O)NS(=O)(=O)c1ccc(Cl)cc1 [CHLORPROPAMIDE] | 71.6 |
| COc1ccc2[nH]c([S+]([O-])Cc3ncc(C)c(OC)c3C)nc2c1 (stereo not given) | 66.4 |
| NNC(=O)c1ccncc1 | 61.8 |

###

LIVER values by entry
Species: Rattus norvegicus
Experiment: Open TG-GATES - Regimen: Daily Repeat
Format: toxicity, organism-based, Sprague-Dawley
Design: regimen Daily Repeat, gender Male, age 6 weeks
Details: in vivo, po, 100 mg/kg, […], tissue Liver, route gavage, dose level Low, time 14 day
REPORTED ENDPOINT: LIVER (g)

| COMPOUND | ENDPOINT RESULT |
| --- | --- |
| CCOc1ccc(NC(=O)CC(C)O)cc1 (stereo not given) [BUCETIN] | 14.9 |
| COc1ccc2[nH]c([S+]([O-])Cc3ncc(C)c(OC)c3C)nc2c1 (stereo not given) [OMEPRAZOLE] | 14.7 |
| COC1=CC(=O)C[C@@H](C)[C@]12Oc1c(Cl)c(OC)cc(OC)c1C2=O [GRISEOFULVIN] | 13.7 |
| CCOC(=O)CCC(=O)O[C@H]1[C@H](O[C@@H]2[C@@H](C)[C@H](O[C@H]3C[C@@](C)(OC)[C@@H](O)[C@H](C)O3)[C@@H](C)C(=O)O[C@H](CC)[C@@](C)(O)[C@H](O)[C@@H](C)C(=O)[C@H](C)C[C@@]2(C)O)O[C@H](C)C[C@@H]1N(C)C [ERYTHROMYCIN ETHYLSUCCINATE] | 13.3 |
| NC(N)=Nc1nc(CSCCC(N)=NS(N)(=O)=O)cs1 [FAMOTIDINE] | 13.4 |

###

Species: Rattus norvegicus
Assay: Open TG-GATES - Regimen: Daily Repeat
Format: toxicity, organism-based, Sprague-Dawley
Set-up: regimen Daily Repeat, gender Male, age 6 weeks
Conditions: in vivo, po, 0 mg/kg, 72 h, tissue Blood, route gavage, dose level Control, time 3 day
Ret values by entry
REPORTED ENDPOINT: Ret (%)

| MOLECULE | ENDPOINT RESULT |
| --- | --- |
| CCOc1ccc(NC(=O)CC(C)O)cc1 (stereo not drawn) | 7.2 |
| CN(C)CCCN1c2ccccc2CCc2ccccc21 | 6.7 |
| CCOC(=O)CCC(=O)O[C@H]1[C@H](O[C@@H]2[C@@H](C)[C@H](O[C@H]3C[C@@](C)(OC)[C@@H](O)[C@H](C)O3)[C@@H](C)C(=O)O[C@H](CC)[C@@](C)(O)[C@H](O)[C@@H](C)C(=O)[C@H](C)C[C@@]2(C)O)O[C@H](C)C[C@@H]1N(C)C [ERYTHROMYCIN ETHYLSUCCINATE] | 6.2 |
| CN1C(=O)CN=C(c2ccccc2)c2cc(Cl)ccc21 | 6.6 |
| CC(C)OC(=O)C(C)(C)Oc1ccc(C(=O)c2ccc(Cl)cc2)cc1 [FENOFIBRATE] | 7.7 |
| COC1=CC(=O)C[C@@H](C)[C@]12Oc1c(Cl)c(OC)cc(OC)c1C2=O | 6.7 |
| NC(N)=Nc1nc(CSCCC(N)=NS(N)(=O)=O)cs1 | 5.7 |
| CC1=C(/C=C/C(C)=C/C=C/C(C)=C/CO)C(C)(C)CCC1 | 6.6 |
| NNC(=O)c1ccncc1 | 8.2 |
| COc1ccc2[nH]c([S+]([O-])Cc3ncc(C)c(OC)c3C)nc2c1 (stereo not drawn) | 5.4 |
| O=C(CCCN1CCC(O)(c2ccc(Cl)cc2)CC1)c1ccc(F)cc1 | 7.7 |
| CCCNC(=O)NS(=O)(=O)c1ccc(Cl)cc1 [CHLORPROPAMIDE] | 7.5 |
| CN(C)CCN(Cc1cccs1)c1ccccn1 | 6.8 |
